For each record, write down the corresponding pKi.
molecular target: UniProtKB P21554; experiment: biochemical; assay type: cell-based, CHO-K1
Sequence (P21554 whole entry): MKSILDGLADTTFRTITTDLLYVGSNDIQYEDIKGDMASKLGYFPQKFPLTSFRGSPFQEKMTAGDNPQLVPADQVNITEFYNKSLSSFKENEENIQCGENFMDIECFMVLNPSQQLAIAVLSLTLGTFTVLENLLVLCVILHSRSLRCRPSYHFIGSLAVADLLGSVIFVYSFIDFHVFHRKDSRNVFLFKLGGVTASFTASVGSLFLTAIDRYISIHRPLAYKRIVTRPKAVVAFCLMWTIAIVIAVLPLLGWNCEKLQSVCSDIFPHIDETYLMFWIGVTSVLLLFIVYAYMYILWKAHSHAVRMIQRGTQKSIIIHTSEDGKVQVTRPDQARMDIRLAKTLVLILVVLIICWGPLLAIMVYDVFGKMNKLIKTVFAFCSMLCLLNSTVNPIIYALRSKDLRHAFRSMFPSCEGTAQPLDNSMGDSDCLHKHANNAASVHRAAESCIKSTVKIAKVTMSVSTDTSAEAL
Kindly note that pKi refers to -log10 of the concentration in mol/L and answer with the value alone.

Which pKi reading was recorded for the compound Cc1c(C(=O)N2CCC(NC(=O)Nc3ccc(N(C)C)cc3)(c3ccccc3)CC2)nn(-c2ccc(Cl)cc2Cl)c1-c1ccc(Cl)cc1 ?
5.83

Looking for the measured pKi of CCCCNC(=O)N1CCC(NC(=O)c2nn(-c3ccc(Cl)cc3Cl)c(-c3ccc(Cl)cc3)c2C)CC1 , can you help?
6.73

Dear colleague, I am looking for the recorded pKi of the following compound: Cc1c(C(=O)N2CCC(NC(=O)NCc3ccccc3)(c3ccccc3)CC2)nn(-c2ccc(Cl)cc2Cl)c1-c1ccc(Cl)cc1
7.37

Any idea what its pKi is? The compound is CCOC(=O)N1CCC[C@H](NC(=O)c2nn(-c3ccc(Cl)cc3Cl)c(-c3ccc(Cl)cc3)c2C)C1
7.18

Given the entry Cc1c(C(=O)N[C@@H]2CCCN(C(=O)OC(C)(C)C)C2)nn(-c2ccc(Cl)cc2Cl)c1-c1ccc(Cl)cc1 , report its measured pKi.
7.65

Using the record for CCCCNC(=O)N1CCC[C@@H](NC(=O)c2nn(-c3ccc(Cl)cc3Cl)c(-c3ccc(Cl)cc3)c2C)C1 , report its pKi.
6.90

So what's the measured pKi for this one? Cc1c(C(=O)N2CCC(NC(=O)Nc3ccc(F)cc3)(c3ccccc3)CC2)nn(-c2ccc(Cl)cc2Cl)c1-c1ccc(Cl)cc1
6.21

Look up pKi for this compound: Cc1c(C(=O)N[C@@H]2CCCN(S(C)(=O)=O)C2)nn(-c2ccc(Cl)cc2Cl)c1-c1ccc(Cl)cc1
7.93

Which pKi is listed for CCCNC(=O)N1CCC[C@@H](NC(=O)c2nn(-c3ccc(Cl)cc3Cl)c(-c3ccc(Cl)cc3)c2C)C1 ?
6.87

# lookup: pKi of CCOC(=O)N1CCC[C@@H](NC(=O)c2nn(-c3ccc(Cl)cc3Cl)c(-c3ccc(Cl)cc3)c2C)C1
7.76

Recorded pKi for Cc1c(C(=O)NC2CCN(C(=O)NC(C)(C)C)CC2)nn(-c2ccc(Cl)cc2Cl)c1-c1ccc(Cl)cc1 , please?
7.83
